// z-score of subpopulation abundance lookup, one value per entry
Test system: Saccharomyces cerevisiae BY4741 SeMeCo community
assay text: z-score of subpopulation abundance vs DMSO median, subpopulation auxotrophic for HM; higher = larger share of this subpopulation than in DMSO controls
run conditions: 10 µM; 24 h; SM minimal medium; subpopulation (auxotrophy): HM
measurement kind: z-score of subpopulation abundance

>>> endpoint_value("CCOC(=O)C1=C(C)NC(C)=C(C(=O)OC)C1c1cccc([N+](=O)[O-])c1 (centres undefined)")
-0.08
>>> endpoint_value("CC(=O)NO [Acetohydroxamic acid]")
0.32
>>> endpoint_value("CC[C@H](C)C(=O)O[C@H]1CCC=C2C=C[C@H](C)[C@H](CC[C@@H]3C[C@@H](O)CC(=O)O3)[C@H]21")
-0.1
>>> endpoint_value("CCOc1cc(N)c(Cl)cc1C(=O)NCC1CN(Cc2ccc(F)cc2)CCO1 (centres undefined) [Mosapride]")
-0.23

* * *

System: Saccharomyces cerevisiae BY4741 SeMeCo community
assay text: z-score of subpopulation abundance vs DMSO median, subpopulation auxotrophic for L; higher = larger share of this subpopulation than in DMSO controls
run conditions: 10 µM; 24 h; SM minimal medium; subpopulation (auxotrophy): L
Structures can show the parent of a compound that is named as a salt.
// z-score of subpopulation abundance lookup, one value per entry
measurement kind: z-score of subpopulation abundance

>>> endpoint_value("Cc1ccccc1C(OCCN(C)C)c1ccccc1 (centres undefined) [Orphenadrine Citrate]")
-0.09
>>> endpoint_value("CC(=O)NO [Acetohydroxamic acid]")
1.33
>>> endpoint_value("CC1=C(C(=O)O)N2C(=O)[C@@H](NC(=O)[C@H](N)c3ccc(O)cc3)[C@H]2SC1 [Cefadroxil hydrate]")
-0.28
>>> endpoint_value("COc1cccc2c1C(=O)c1c(O)c3c(c(O)c1C2=O)C[C@@](O)(C(C)=O)C[C@@H]3O[C@H]1C[C@H](N)[C@H](O)[C@H](C)O1 [Daunorubicin HCl]")
-1.28
>>> endpoint_value("CC(=O)OCC1=C(C(=O)O)N2C(=O)C(NC(=O)CSC(=NC(C)C)NC(C)C)C2SC1 (centres undefined)")
-0.86
>>> endpoint_value("O=C(NCCO[N+](=O)[O-])c1cccnc1")
0.07
>>> endpoint_value("N=C(N)NC(=O)c1nc(Cl)c(N)nc1N [Amiloride HCl]")
1.94
>>> endpoint_value("CC(=O)OC1CC2(C)C(CC(O)C3C4(C)CCC(O)C(C)C4CCC32C)C1=C(CCC=C(C)C)C(=O)O (centres undefined)")
2.4
>>> endpoint_value("Cc1nnc(NS(=O)(=O)c2ccc(N)cc2)s1")
0.65

* * *

System: Saccharomyces cerevisiae BY4741 SeMeCo community
assay text: z-score of subpopulation abundance vs DMSO median, subpopulation auxotrophic for HL; higher = larger share of this subpopulation than in DMSO controls
run conditions: 10 µM; 24 h; SM minimal medium; subpopulation (auxotrophy): HL
Where a name gives a salt, the structure may show the parent alone.
Cut-off 1 on z-score of subpopulation abundance, inclusive. At or above means fulfilled; below means not fulfilled.

>>> assigned_label("COc1cc(O)c(C(=O)Nc2nc(C(=O)NCCN(C(C)C)C(C)C)cs2)cc1OC [Acotiamide hydrochloride]")
"not fulfilled"
>>> assigned_label("CN1CCOC(c2ccccc2)c2ccccc2C1 (stereo not drawn) [Nefopam HCl]")
"not fulfilled"
>>> assigned_label("NC(=O)c1cnccn1 [Pyrazinamide]")
"not fulfilled"
>>> assigned_label("CO[C@@H]1[C@@H](OC(N)=O)[C@@H](O)[C@H](Oc2ccc3c(O)c(NC(=O)c4ccc(O)c(CC=C(C)C)c4)c(=O)oc3c2C)OC1(C)C [Novobiocin Sodium]")
"fulfilled"
>>> assigned_label("Oc1c(Cl)cc(Cl)c(Cl)c1Cc1c(O)c(Cl)cc(Cl)c1Cl")
"fulfilled"
>>> assigned_label("CC1=CC[C@@](O)(C(C)C)CC1")
"not fulfilled"
>>> assigned_label("CC(C)c1nc(N(C)S(C)(=O)=O)nc(-c2ccc(F)cc2)c1/C=C/[C@@H](O)C[C@@H](O)CC(=O)O [Rosuvastatin]")
"fulfilled"
>>> assigned_label("COc1ccc2[nH]c([S+]([O-])Cc3ncc(C)c(OC)c3C)nc2c1 (stereo not drawn)")
"fulfilled"
